assay: Inhibition of human ABCB1-mediated multidrug resistance in human A2780/ADR cells assessed as potentiation of doxorubicin-induced cytotoxicity by measuring half maximal reversal concentration after 72 hrs by MTT assay
endpoint.name: EC50 (µM)
I only need the number, in µM, no unit after it.

Cc1cc(Nc2ccc3ncccc3c2)nc(-c2ccccc2)n1 yielded EC50 of 8.41

* * *

assay: Inhibition of human ABCG2-mediated multidrug resistance in MDCK2 cells assessed as potentiation of SN-38-induced cytotoxicity by measuring half maximal reversal concentration after 72 hrs by MTT assay
Recorded measurements of pEC50, one per entry
Scale: pEC50 equals -log10([C]), with [C] in mol/L.

smiles_record=Cc1cc(Nc2ccc(C#N)c(Br)c2)nc(-c2ccccc2)n1 numeric_value=7.82
smiles_record=Cc1cc(Nc2ccc([N+](=O)[O-])cc2)nc(-c2ccccc2)n1 numeric_value=7.80
smiles_record=Cc1cc(Nc2ccc(F)c(C#N)c2)nc(-c2ccccc2)n1 numeric_value=7.68
smiles_record=Cc1cc(Nc2ccc3ncccc3c2)nc(-c2ccccc2)n1 numeric_value=7.80

# pEC50 (compound: Cc1cc(Nc2ccc(C#N)c(C)c2)nc(-c2ccccc2)n1 ) is 7.96

The reported value for Cc1cc(Nc2ccc(C#N)c(C(F)(F)F)c2)nc(-c2ccccc2)n1 in terms of pEC50 is 7.82
